B1: TPR 5TU (parent)
chain: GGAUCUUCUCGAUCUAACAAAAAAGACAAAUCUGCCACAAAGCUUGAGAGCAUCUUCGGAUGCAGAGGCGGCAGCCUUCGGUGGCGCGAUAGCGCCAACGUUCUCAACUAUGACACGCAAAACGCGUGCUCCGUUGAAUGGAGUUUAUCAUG

Variants of: B1
Assay: polymerase ribozyme fitness, log enrichment relative to wild type (log ratio); higher = more active; in vitro selection for triplet polymerase activity
Fewer inactive variants are shown than the library holds.
polymerase ribozyme fitness (log ratio) values for the variants below.
readout_name: polymerase ribozyme fitness (log ratio)

* A17C G50U U56A G58C G84U | -1.22
* A20U G50A C85U | -3.83
* G46C U101G A107U A137C | -4.12
